// IC50 collected for Bcl-xL (Homo sapiens (Human))
Lab book: enter the figure in nM, no units written.

The value of IC50 measured for the molecule CCCCc1c(-c2ccc(C(=O)NS(=O)(=O)CC[Si](C)(C)C)cc2C(=O)N2CCc3ccccc3C2)c(C(=O)OCC)nn1-c1ccccc1 turned out to be 30

The value of IC50 measured for the molecule CCCN(CCC)c1nn(-c2ccc(C(=O)NS(=O)(=O)c3ccc4cccc(Cl)c4c3)cc2C(=O)N2Cc3ccccc3C[C@H]2CO)c(C(F)(F)F)c1Cl turned out to be 290

The value of IC50 measured for the molecule CCCN(CCC)c1nn(-c2ccc(C(=O)NS(=O)(=O)c3ccc4ccccc4c3)cc2C(=O)N2Cc3ccccc3C[C@H]2CO)c(C)c1Cl turned out to be 30

The value of IC50 measured for the molecule CCCCN(CCCC)C(=O)c1cc(C)n(-c2ccc(C(=O)NS(=O)(=O)c3ccc4ccccc4c3)cc2C(=O)N2CCc3ccccc3C2)n1 turned out to be 30

The value of IC50 measured for the molecule CCCCN(CCCC)C(=O)c1nn(-c2ccc(C(=O)NS(=O)(=O)c3ccc4cccc(C#N)c4c3)cc2C(=O)N2CCc3ccccc3C2)c(C)c1Cl turned out to be 20

The value of IC50 measured for the molecule CCCCN(C(=O)c1nn(-c2ccc(C(=O)NS(=O)(=O)c3ccc4ccccc4c3)cc2C(=O)N2CCc3ccccc3C2)c(C)c1Cl)c1ccc2c(c1)OCCO2 turned out to be 30
